Test: Multi-angle light scattering, molecular weight of peptide aggregates and degree of aggregation
Assay type: physicochemical
Conditions: 0.4 mg/ml peptide
Where no end group is shown, it is not given here.
property measured: N, degree of aggregation (molecules per particle)

INSERT INTO results (substance, value_unit, reading) VALUES
  ('SEQ ID NO: 1-PEG11: TM peptide of SEQ ID NO: 1 with hydrophilic oligomer PEG11 added (LLFVITLPFWAVDAVANWYFGNDD; not fully specified; also: PEG11 added)', 'molecules per particle', 54),
  ('SEQ ID NO: 8-PEG27: deletion mutant lacking the five N-terminal amino acid residues of SEQ ID NO: 1, with PEG27 (TLPFWAVDAVANWYFGNDD; not fully specified; also: PEG27 added)', 'molecules per particle', 10),
  ('SEQ ID NO: 1-PEG38: TM peptide of SEQ ID NO: 1 with PEG38, obtained by sequential coupling of PEG11 and PEG27 (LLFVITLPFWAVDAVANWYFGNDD; also: PEG38 added (PEG11 + PEG27))', 'molecules per particle', 24);

---

The entries below are paired with their reported N, degree of aggregation (molecules per particle).
Test: Multi-angle light scattering, molecular weight of peptide aggregates and degree of aggregation
Type: physicochemical
Settings: 0.2 mg/ml peptide
Where no end group is shown, it is not given here.
property measured: N, degree of aggregation (molecules per particle)

INSERT INTO results (substance, reading) VALUES
  ('SEQ ID NO: 1-PEG11: TM peptide of SEQ ID NO: 1 with hydrophilic oligomer PEG11 added (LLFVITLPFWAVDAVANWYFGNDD; not fully specified; also: PEG11 added)', 137),
  ('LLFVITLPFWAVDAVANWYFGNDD [SEQ ID NO: 1]', 2494),
  ('SEQ ID NO: 1-PEG38: TM peptide of SEQ ID NO: 1 with PEG38, obtained by sequential coupling of PEG11 and PEG27 (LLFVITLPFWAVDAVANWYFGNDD; also: PEG38 added (PEG11 + PEG27))', 19),
  ('SEQ ID NO: 1-GGGGG: TM peptide of SEQ ID NO: 1 with polyglycine tail GGGGG (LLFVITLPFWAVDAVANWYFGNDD; C-terminal GGGGG tail)', 282),
  ('SEQ ID NO: 8-PEG27: deletion mutant lacking the five N-terminal amino acid residues of SEQ ID NO: 1, with PEG27 (TLPFWAVDAVANWYFGNDD; not fully specified; also: PEG27 added)', 10),
  ('SEQ ID NO: 1-PEG27: TM peptide of SEQ ID NO: 1 with hydrophilic oligomer PEG27 added; CXCR4 peptide nanoparticles (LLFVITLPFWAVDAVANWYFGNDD; not fully specified; also: PEG27 added)', 167);

Data credit: patent US9326950B2
